SYSTEM TESTED: FRMPD2_1, Q68DX3
Sequence (Q68DX3 770-861): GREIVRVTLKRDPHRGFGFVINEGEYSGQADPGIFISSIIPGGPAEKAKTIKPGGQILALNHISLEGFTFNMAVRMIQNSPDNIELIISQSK
ASSAY PROTOCOL: holdup assay
Set-up: key: below the threshold = too weak to quantify, mostly under pKd 3.1 to 4
CONDITION SUMMARY: plain residues with an end cap or a label only (N-terminal biotin on a linker: ado-ado)
MEASURED PARAMETER: pKd

BINDER	pKd
PKRSFIESNV [TANC1, Q9C0D5]	below the threshold
QMNQTLPVQV [EPHB3, P54753]	4.36
EVNETDDTKM [KCNJ1, P48048]	below the threshold
RRISSLESEV [GRIN2C, Q14957]	below the threshold
SAKVRTVTSV [RASL11B, Q9BPW5]	below the threshold

Req: Kindly indicate its recorded pKd. Item: SKENVQETQI [LRRC4B, Q9NT99]
Resp: below the threshold

Req: Kindly indicate its recorded pKd. Item: TLPRKRMSSI [GPRC6A, Q5T6X5]
Resp: below the threshold

Req: Kindly indicate its recorded pKd. Item: YYKRPVQEWV [MMP24, Q9Y5R2]
Resp: 3.85
